These data points were gathered from the supplement of paper PMC10065799.

Test system: c-Abl (mouse)
Assay: phosphorylation enrichment, bacterial display (enrichment ratio); higher = better substrate or ligand; peptides without Tyr show the background;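 also: 11-residue human phosphosite peptides and single-mutation variants displayed on the E. coli surface, counted by deep sequencing, each peptide's frequency after selection divided by its frequency in the unselected input library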;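 also: frequency after pTyr selection over input frequency; kinase dosed for 20-30% of maximal phosphorylation in three min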
Criterion: phosphorylation enrichment meeting or surpassing 0.8. Met: condition met. Not met: condition not met.

Example entries begin here.
querySequence	assignedLabel
AYGNLYGSRKQ [YIPF7_Y59]	condition not met
WAAQRYGRELR [BAD_Y110]	condition not met
IQSAKYDMAED [TTC21B_Y1213]	condition met
VPLLEYYWDIF [CDAN1_Y712_R714W]	condition met

-- ask Does phosphorylation enrichment meet or surpass 0.8 for HFGCIYHGTLL [MET_Y1093_V1092I] ?
-- reply condition met

-- ask Does phosphorylation enrichment meet or surpass 0.8 for SVSNNYIQTLG [CTNND1_Y174] ?
-- reply condition not met

-- ask Does phosphorylation enrichment meet or surpass 0.8 for IVKAFYVHARA [AIPL1_Y268_R270H_YF] ?
-- reply condition not met

-- ask Does phosphorylation enrichment meet or surpass 0.8 for DAVCYYRMENA [NPHS2_Y195_I192V] ?
-- reply condition met

-- ask Does phosphorylation enrichment meet or surpass 0.8 for VHFLVYHHHHH [CACNA1H_Y519_H516Y_YF] ?
-- reply condition met

-- ask Does phosphorylation enrichment meet or surpass 0.8 for RLNWIYYKDQT [RS1_Y165] ?
-- reply condition not met

-- ask Does phosphorylation enrichment meet or surpass 0.8 for GDEVEYMSVSF [GCLC_Y53_L55S] ?
-- reply condition met

-- ask Does phosphorylation enrichment meet or surpass 0.8 for SPFAVYLFFTF [RPGRIP1_Y826_R827L_YF] ?
-- reply condition not met

-- ask Does phosphorylation enrichment meet or surpass 0.8 for ATPKGYELDAS [OTC_Y223_P225L] ?
-- reply condition not met

-- ask Does phosphorylation enrichment meet or surpass 0.8 for MFFSTYDRDND [FGB_Y408] ?
-- reply condition met

----------
Target: Fes (UniProt P07332)
Sequence (P07332 whole entry, looked up): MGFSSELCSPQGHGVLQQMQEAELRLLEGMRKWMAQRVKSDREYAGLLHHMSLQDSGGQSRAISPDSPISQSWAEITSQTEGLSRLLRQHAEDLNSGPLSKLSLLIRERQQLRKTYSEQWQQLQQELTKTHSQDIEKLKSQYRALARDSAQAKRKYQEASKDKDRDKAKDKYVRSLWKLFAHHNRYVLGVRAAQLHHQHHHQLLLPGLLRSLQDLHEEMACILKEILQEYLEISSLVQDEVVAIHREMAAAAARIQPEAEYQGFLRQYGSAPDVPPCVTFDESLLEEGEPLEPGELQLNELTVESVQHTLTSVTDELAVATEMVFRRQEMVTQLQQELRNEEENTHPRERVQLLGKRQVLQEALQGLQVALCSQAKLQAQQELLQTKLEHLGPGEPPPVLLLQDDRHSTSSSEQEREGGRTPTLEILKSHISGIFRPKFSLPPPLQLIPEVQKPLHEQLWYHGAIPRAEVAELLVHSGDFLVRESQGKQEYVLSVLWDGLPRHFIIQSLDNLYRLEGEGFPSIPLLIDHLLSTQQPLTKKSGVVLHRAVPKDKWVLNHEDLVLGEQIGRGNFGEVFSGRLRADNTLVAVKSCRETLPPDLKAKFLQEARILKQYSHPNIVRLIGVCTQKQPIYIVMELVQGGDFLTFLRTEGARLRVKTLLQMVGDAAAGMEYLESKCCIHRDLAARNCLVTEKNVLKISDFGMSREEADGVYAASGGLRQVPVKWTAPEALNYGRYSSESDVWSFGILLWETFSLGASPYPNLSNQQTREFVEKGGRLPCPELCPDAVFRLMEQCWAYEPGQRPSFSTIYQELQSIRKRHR
Experiment: phosphorylation enrichment, bacterial display (enrichment ratio); higher = better substrate or ligand; peptides without Tyr show the background
recordedEndpoint: phosphorylation enrichment
Lab note: record the figure alone, no unit after it.

Worked examples follow.
querySequence	phosphorylation enrichment
ASFPLYEPAKM [MKI67_Y340]	1.52
SKEPYYVHCIK [MYO1D_Y586_R588H]	0.932
MTEEQYIKMNR [ARFGEF2_Y797_K794E]	1.09

-- ask Which value of phosphorylation enrichment has been reported for LPKEQYLFTKE [AFG3L2_Y614_YF] in the records?
-- reply 1.49

-- ask Which value of phosphorylation enrichment has been reported for AMGPVYQAAAL [HYOU1_Y421_A419P] in the records?
-- reply 0.611

-- ask Which value of phosphorylation enrichment has been reported for ATDLAYFLVRE [ASL_Y375_K380E_YF] in the records?
-- reply 1.51

-- ask Which value of phosphorylation enrichment has been reported for PADSGYPAYLG [ATP6V1A_Y374] in the records?
-- reply 1.51

-- ask Which value of phosphorylation enrichment has been reported for HESEIYCKVCY [CSRP3_Y57] in the records?
-- reply 1.25

-- ask Which value of phosphorylation enrichment has been reported for FHLLPYTIRAM [PARS2_Y93_V95I_YF] in the records?
-- reply 0.972

-- ask Which value of phosphorylation enrichment has been reported for TVSQPYSFIEF [SEC22B_Y110_R108Q] in the records?
-- reply 3.48

-- ask Which value of phosphorylation enrichment has been reported for IEPVIYVVQRR [ANOS1_Y217] in the records?
-- reply 1.23

-- ask Which value of phosphorylation enrichment has been reported for QVQQIYSDSDL [MIB1_Y376_R371Q] in the records?
-- reply 1.88

-- ask Which value of phosphorylation enrichment has been reported for FDDDDYDMDFV [BLM_Y296_T298M] in the records?
-- reply 1.23

-- ask Which value of phosphorylation enrichment has been reported for CSGNCYLDIRP [FBN1_Y1535_R1530C] in the records?
-- reply 0.646

-- ask Which value of phosphorylation enrichment has been reported for MTFQNYGQALF [FAM20C_Y279] in the records?
-- reply 0.827

----------
Listing: phosphorylation enrichment of selected sequences
System: Fer (mouse)
Assay: phosphorylation enrichment, bacterial display (enrichment ratio); higher = better substrate or ligand; peptides without Tyr show the background
Lab note: record the figure alone, no unit after it.

Worked examples follow.
querySequence	phosphorylation enrichment
QITQVCGFFDE [PPP2CA_Y127_Y127C_YF]	0.612
YKEDPYLVVNP [MCM6_Y810_E806K]	0.46
MDNQEYKDAFT [BRDT_Y331_K336T_YF]	0.539
PAGSGYPAYLG [ATP6V1A_Y374_D371G]	0.866
WQQQSYLYSGI [CTNNB1_Y30_D32Y]	5.61

# evaluate next
-- ask Which value of phosphorylation enrichment has been reported for KREPQYSSHSS [SIPA1L3_Y1265_G1261R] in the records?
-- reply 0.401

----------
Molecular target: Hck (UniProt P08631)
Sequence (P08631 whole entry, looked up): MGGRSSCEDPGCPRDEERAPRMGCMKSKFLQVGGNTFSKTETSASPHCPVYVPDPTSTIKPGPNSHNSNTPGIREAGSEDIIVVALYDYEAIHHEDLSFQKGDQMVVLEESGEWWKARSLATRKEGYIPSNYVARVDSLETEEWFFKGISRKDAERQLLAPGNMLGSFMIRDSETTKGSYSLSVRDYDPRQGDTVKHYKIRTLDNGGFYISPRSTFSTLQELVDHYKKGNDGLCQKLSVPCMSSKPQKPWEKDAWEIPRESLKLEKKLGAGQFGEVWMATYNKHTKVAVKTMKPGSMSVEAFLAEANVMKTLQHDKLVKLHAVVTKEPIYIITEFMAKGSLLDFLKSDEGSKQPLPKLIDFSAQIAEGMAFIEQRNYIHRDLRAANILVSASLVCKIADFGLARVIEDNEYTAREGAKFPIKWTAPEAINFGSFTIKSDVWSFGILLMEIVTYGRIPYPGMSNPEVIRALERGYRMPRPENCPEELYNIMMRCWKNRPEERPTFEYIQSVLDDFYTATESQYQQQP
Test: phosphorylation enrichment, bacterial display (enrichment ratio); higher = better substrate or ligand; peptides without Tyr show the background
Binned phosphorylation enrichment; ranges: bucket 1 (below 0.5), bucket 2 (0.5 to below 0.7), bucket 3 (0.7 or more)

Example entries begin here.
querySequence	assignedLabel
HLMLQYDAVVN [SLC25A32_Y152_R147H]	bucket 3
GFVEDYRPPFF [ACVRL1_Y421_I417F_YF]	bucket 2

-- ask Which phosphorylation enrichment category applies to TLKDVCDDGKY [RPS6KA3_Y483_Y483C] here?
-- reply bucket 2

----------
Listing: phosphorylation enrichment of selected sequences
Molecular target: MERTK (UniProt Q12866)
Sequence (Q12866 whole entry, looked up): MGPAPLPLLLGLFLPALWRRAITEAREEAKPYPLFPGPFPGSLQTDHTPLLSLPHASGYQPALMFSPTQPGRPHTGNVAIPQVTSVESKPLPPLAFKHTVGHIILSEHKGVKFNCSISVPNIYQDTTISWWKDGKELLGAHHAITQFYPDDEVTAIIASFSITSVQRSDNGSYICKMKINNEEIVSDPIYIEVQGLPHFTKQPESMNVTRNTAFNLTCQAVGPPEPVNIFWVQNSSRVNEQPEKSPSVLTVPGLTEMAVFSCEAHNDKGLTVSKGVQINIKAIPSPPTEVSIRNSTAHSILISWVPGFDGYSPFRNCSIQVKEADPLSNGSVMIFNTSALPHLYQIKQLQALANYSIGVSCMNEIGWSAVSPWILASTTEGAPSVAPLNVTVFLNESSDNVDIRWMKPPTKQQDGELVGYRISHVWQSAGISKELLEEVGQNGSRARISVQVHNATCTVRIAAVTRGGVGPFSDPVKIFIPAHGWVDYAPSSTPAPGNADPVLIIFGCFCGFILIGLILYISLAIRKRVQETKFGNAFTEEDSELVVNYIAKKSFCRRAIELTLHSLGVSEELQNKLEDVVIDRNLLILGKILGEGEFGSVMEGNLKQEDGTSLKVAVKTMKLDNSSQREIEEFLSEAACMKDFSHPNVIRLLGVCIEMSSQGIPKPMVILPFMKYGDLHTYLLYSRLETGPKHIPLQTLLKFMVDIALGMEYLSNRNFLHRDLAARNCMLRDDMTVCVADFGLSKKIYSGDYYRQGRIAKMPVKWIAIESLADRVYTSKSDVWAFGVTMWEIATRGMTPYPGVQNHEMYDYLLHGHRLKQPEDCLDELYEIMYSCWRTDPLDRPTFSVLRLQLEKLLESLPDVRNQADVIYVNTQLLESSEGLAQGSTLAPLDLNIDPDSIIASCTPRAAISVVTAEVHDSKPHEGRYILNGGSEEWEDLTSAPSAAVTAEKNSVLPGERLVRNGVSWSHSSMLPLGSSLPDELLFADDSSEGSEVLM
Assay: phosphorylation enrichment, bacterial display (enrichment ratio); higher = better substrate or ligand; peptides without Tyr show the background
Lab note: record the figure alone, no unit after it.

Worked examples follow.
querySequence	phosphorylation enrichment
RLLVVYRWTQR [HBB_Y36_P37R]	0.463
TWSPKYTLRSH [STRN3_Y474_N471S]	0.426
MARDISRASFF [ALK_Y1278_Y1278S_YF]	0.432
IGEGTYRQVFK [CDK13_Y716_G717R_YF]	0.348

# evaluate next
-- ask Which value of phosphorylation enrichment has been reported for CPYNLYAEQLS [HGD_Y40] in the records?
-- reply 2.67

----------
Target: Fyn (UniProt P06241)
Sequence (P06241 whole entry, looked up): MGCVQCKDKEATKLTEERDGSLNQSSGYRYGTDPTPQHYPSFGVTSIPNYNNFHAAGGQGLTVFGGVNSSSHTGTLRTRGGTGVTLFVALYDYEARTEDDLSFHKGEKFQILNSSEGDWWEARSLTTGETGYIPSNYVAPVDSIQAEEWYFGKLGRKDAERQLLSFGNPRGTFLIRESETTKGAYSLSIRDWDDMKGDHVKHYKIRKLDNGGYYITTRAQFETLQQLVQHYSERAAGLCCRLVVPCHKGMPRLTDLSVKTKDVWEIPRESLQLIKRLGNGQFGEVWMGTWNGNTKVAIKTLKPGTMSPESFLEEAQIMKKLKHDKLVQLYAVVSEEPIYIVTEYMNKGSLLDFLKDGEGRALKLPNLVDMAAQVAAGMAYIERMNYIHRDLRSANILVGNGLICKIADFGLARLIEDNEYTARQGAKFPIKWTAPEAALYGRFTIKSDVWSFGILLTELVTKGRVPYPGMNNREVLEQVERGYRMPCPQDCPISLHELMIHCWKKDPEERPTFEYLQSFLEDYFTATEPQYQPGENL
Test: phosphorylation enrichment, bacterial display (enrichment ratio); higher = better substrate or ligand; peptides without Tyr show the background
Criterion: phosphorylation enrichment meeting or surpassing 0.7. Met: t. Not met: f.

querySequence	assignedLabel
VDASFCGGRGV [ANTXR2_Y381_Y381C_YF]	f
GSSSSYGQHGS [HRNR_Y517]	f
TRVMEYISRLD [CLTCL1_Y1043]	f
GSRGKYSSGFC [ATM_Y332_R337C]	f
TWNPKYTLRSH [STRN3_Y474]	f

-- ask Does phosphorylation enrichment meet or surpass 0.7 for VTNHIYTWVDP [DFNB31_Y234] ?
-- reply t

-- ask Does phosphorylation enrichment meet or surpass 0.7 for VSYGEYRYRSV [CFTR_Y515_D513G] ?
-- reply t

-- ask Does phosphorylation enrichment meet or surpass 0.7 for IEELTYIIKQD [STX5_Y137] ?
-- reply f

----------
Molecular target: Fyn (UniProt P06241)
Assay: phosphorylation enrichment, bacterial display (enrichment ratio); higher = better substrate or ligand; peptides without Tyr show the background
Listing: phosphorylation enrichment of selected sequences
Lab note: record the figure alone, no unit after it.

Worked examples follow.
querySequence	phosphorylation enrichment
EIIPFYGMSSF [FNDC3B_Y175_T179S_YF]	1.06
QYPDIYAREEV [CRX_Y67_V66I]	1.84
PESILYRKFTT [NTRK1_Y701]	0.377

-- ask Which value of phosphorylation enrichment has been reported for PIYLYYLMDLS [ITGB2_Y131_D128Y] in the records?
-- reply 5.41

-- ask Which value of phosphorylation enrichment has been reported for SQPASYQRRLL [PPIG_Y320] in the records?
-- reply 0.53

----------
Listing: phosphorylation enrichment of selected sequences
Biological target: Fes (UniProt P07332)
Assay: phosphorylation enrichment, bacterial display (enrichment ratio); higher = better substrate or ligand; peptides without Tyr show the background

Worked examples follow.
querySequence	targetDesc	phosphorylation enrichment
ARLEYYENEKK [IRS1_Y47]	Fes (UniProt P07332)	1.01
CDLTDYLMKIL [ACTA1_Y190_R185C]	Fes (UniProt P07332)	1.7
LERYIYNREEL [HLA-DPB1_Y59_F64L]	Fes (UniProt P07332)	0.944

-- ask Which value of phosphorylation enrichment has been reported for QFNMQYSSSAA [ERBB2IP_Y981_I979M_YF] in the records?
-- reply 1.18

-- ask Which value of phosphorylation enrichment has been reported for KVASVYEAPGF [NT5C_Y65] in the records?
-- reply 0.903

-- ask Which value of phosphorylation enrichment has been reported for EEAAGYAQESQ [CAMKV_Y491] in the records?
-- reply 1.39

-- ask Which value of phosphorylation enrichment has been reported for FSPCDYQPCLA [TNS1_Y798_Y796C_YF] in the records?
-- reply 1.11

-- ask Which value of phosphorylation enrichment has been reported for LPIQTYSALNF [DES_Y423] in the records?
-- reply 1.24

-- ask Which value of phosphorylation enrichment has been reported for WQQQSYLYSGI [CTNNB1_Y30_D32Y] in the records?
-- reply 1.48

-- ask Which value of phosphorylation enrichment has been reported for LKMLVYLDMSK [LRRC7_Y234] in the records?
-- reply 1.72

-- ask Which value of phosphorylation enrichment has been reported for RQQEDYLLYKQ [RARRES1_Y159] in the records?
-- reply 1.65

-- ask Which value of phosphorylation enrichment has been reported for GSRGKYSSGFC [ATM_Y332_R337C] in the records?
-- reply 0.559

-- ask Which value of phosphorylation enrichment has been reported for DSFWSYCNAVA [SLC20A2_Y436_S434W_YF] in the records?
-- reply 1.31

-- ask Which value of phosphorylation enrichment has been reported for NPQKPYFIRLY [WAS_Y83_S82P] in the records?
-- reply 1.08

-- ask Which value of phosphorylation enrichment has been reported for FKEVVYQAMEE [TACC3_Y684_E680K] in the records?
-- reply 1.05

-- ask Which value of phosphorylation enrichment has been reported for EQKRYYNAMKK [SCN5A_Y1495_K1493R] in the records?
-- reply 0.576

-- ask Which value of phosphorylation enrichment has been reported for YLEEEYVKAVG [TF_Y674_G671E] in the records?
-- reply 1.32

-- ask Which value of phosphorylation enrichment has been reported for MLEAPYVDRNS [F10_Y384_V382A] in the records?
-- reply 0.954
